Measured Percent Effect accompanies every entry in the list below.
- System: Wolbachia pipientis
- method: Anti-Wolbachia Cell-Based Screen
- Type: functional
- Set-up: scale not given: in the data most compounds retested in dose-response had high values
- assayContext: 5 µM
Hit rate of the full screen: of about 48,000 compounds, about 13,000 (27%) showed an effect of 50% or more. Some of the results follow.

molecule	Percent Effect (%)
CN(CCC#N)C(=O)Cc1csc(-c2ncccn2)n1	2.424
CC(C)c1nn2c(-c3cnn(C)c3)nnc2s1	112.2
NC(=O)C1CN(C(=O)Nc2ccccc2-c2cccs2)CCO1 (centres undefined)	-5.73
CCNC(=O)N1C[C@@H]2OCC(=O)N(CC3CC3)[C@@H]2C1	-6.422
CCN(CCC(=O)OC)C(=O)c1cc(F)cc2[nH]cnc12	-3.962
Cc1nc(C(C)C)sc1C(=O)N(C)Cc1cnn(C)c1	-3.073
O=C(c1cnccn1)N1C[C@@H]2CC[C@H](C1)N(C(=O)CCc1ccsc1)C2	0.0629
COc1ccc(C(=O)N2CCC3(CC2)c2ccccc2[C@@H](N)[C@@H]3O)cc1	-1.286
Cc1cc(CNCC2(O)CCOCC2)ccc1F	-13.16
Cc1cnn(CCNCc2csc(-c3ccc4c(c3)OCO4)n2)c1	-11.61
CC(C)C1CN(C(=O)c2nccnc2N)CCS1 (centres undefined)	-3.274
CN1CCN(c2nc(-c3cnn(C)c3)cs2)CC1	4.898
Cc1nc(-c2cnn(C)c2)sc1C(=O)NCc1ccc(C)n1C	-0.2397
COCCN1C(=O)[C@H]2CC[C@@H]1CN(C(=O)COc1ccc(F)c(Cl)c1)C2	1.148
C=C(C)COc1ccccc1NC(=O)N1CCOCC1CO (centres undefined)	6.942
CC(C)C1CN(C(=O)c2cc(F)cc3[nH]cnc23)CCS1 (centres undefined)	102.4
NCC1Cc2cccc(-c3nccc(N4CCC(O)CC4)n3)c2O1 (centres undefined)	-9.933
NC(=O)C1CN(C(=O)Nc2ccccc2Oc2ccccc2Cl)CCO1 (centres undefined)	94.62
CCc1nnsc1C(=O)N1CCN(CC(O)C(C)(C)C)CC1 (centres undefined)	3.041
CC1(C)CN(Cc2csc(CS(C)(=O)=O)n2)Cc2ccccc21	-1.783
COCCOCc1cccc(NC(=O)N2CCCC2c2ccncc2)c1 (centres undefined)	1.869
CC(NCCCn1ccnc1)c1ccc(N2CCOC2=O)cc1 (centres undefined)	-1.07
CC(C)C1CN(C(=O)c2ccc(C(N)=O)cc2)CCS1 (centres undefined)	0.1325
NC(=O)C1CN(C(=O)Nc2ccccc2N2CCCCCC2)CCO1 (centres undefined)	3.966

====

- System: Wolbachia pipientis
- method: Anti-Wolbachia Cell-Based Screen
- Type: functional
- Design: scale not given: in the data most compounds retested in dose-response had high values
- assayContext: 5 µM
Among all 48,000 compounds or so, about 13,000 (27%) showed an effect of 50% or more. Some of the results follow.

compound	Percent Effect [%]
N#Cc1cccc(N2CCCC3(CN(C(=O)[C@H]4CCCO4)CCO3)C2)c1 (stereo partly drawn)	-7.794
N#Cc1ccc(F)c(CN2CCCC2Cn2cncn2)c1 (stereo not drawn)	0.2616
CC(C)c1cc(C(=O)N(Cc2ccncc2)CC2CCCO2)no1 (stereo not drawn)	4.129
c1cc(-c2cnc(NC3CC3)nc2[C@H]2CCCO2)ccn1	171.5
O=C(O)C(F)(F)F.O=C(c1cnccn1)N1CCOCC2(CCN(C3CCOCC3)C2)C1 (stereo not drawn)	8.846
O=C(O)C(F)(F)F.O=C([C@H]1CCCO1)N1CCOC2(CCCN(c3ncccc3F)C2)C1 (stereo partly drawn)	94.35
CC(C)c1nn(C)c(N(C)C)c1CNCC(O)c1ccccc1F (stereo not drawn)	-5.015
COc1ncccc1CNCc1c(C(C)C)nn(C)c1OC	1.463
COc1c(CNCC(O)c2ccccc2F)c(C(C)C)nn1C (stereo not drawn)	91.26
CCC(=O)N1CCc2[nH]cnc2C12CCN(C(=O)c1snnc1C)CC2	7.824
COc1c(CNCc2ccc(N(C)C)nc2)c(C(C)C)nn1C	-3.12
CC(C)NC(=O)N1CCOC2(CCCN(c3ncccc3F)C2)C1.O=C(O)C(F)(F)F (stereo not drawn)	108.5
COCC(=O)N1CCOC2(CCCN(c3cnccn3)C2)C1.O=C(O)C(F)(F)F (stereo not drawn)	-12.12
Cc1nc2cc(C(=O)N(CCN(C)C)CCN(C)C)ccc2n1C	-1.95
Cn1nnnc1SCC1COc2ccccc2O1 (stereo not drawn)	100.3
COc1c(CNCC(O)c2ccc(C)cc2)c(C(C)C)nn1C (stereo not drawn)	85.73
CN(Cc1nc(CC2CC2)no1)CC1COc2ccccc2O1 (stereo not drawn)	-4.512
Cn1ccnc1-c1ccc(NCCC2COc3ccccc3O2)nn1 (stereo not drawn)	7.675
COc1c(CNCC(c2cccc(F)c2)N(C)C)c(C(C)C)nn1C (stereo not drawn)	10
COc1ccc(C)cc1CN1CCN(Cc2nccn2C)C(C)C1 (stereo not drawn)	-12.47
CCC(O)CNC(=O)C1(N(C)Cc2ccccc2)Cc2ccccc2C1 (stereo not drawn)	-9.431
COc1c(CNCC(O)c2ccccc2)c(C(C)C)nn1C (stereo not drawn)	92.93
CN(C)CC(=O)N1CCOC2(CCCN(c3ncccc3F)C2)C1.O=C(O)C(F)(F)F.O=C(O)C(F)(F)F (stereo not drawn)	6.33

====

Entries and their Percent Effect
- Test system: Wolbachia pipientis
- method: Anti-Wolbachia Cell-Based Screen
- Type: functional
- Design: scale not given: in the data most compounds retested in dose-response had high values
- assayContext: 5 µM
The campaign covered roughly 48,000 compounds. About 13,000 (27%) showed an effect of 50% or more. Some of the results follow.
measuredEndpoint: Percent Effect (%)

compound	numericValue
Cc1cccc(NC(=O)Cn2ncc(SCC(N)=O)c(Cl)c2=O)c1C	-8.805
Cc1nn(C)c(Oc2ccc(Cl)cc2)c1CN1CCOC(CN)C1 (centres undefined)	-15.91
Cc1oc(-c2ccoc2)nc1CN1CCCCC1CCn1cccn1 (centres undefined)	3.711
COc1c(C2CCCN2C(=O)c2scnc2C)c(C)nn1C (centres undefined)	97.95
CN(C)C(=O)CCS(=O)(=O)Cc1cc(Cl)c2c(c1)OCCO2	3.114
COc1ccc(CNC(=O)N2CCOCC2C2CC2)cc1C (centres undefined)	12.32
Cc1ccc2nc(CN3CCCCC3CCn3cccn3)cn2c1 (centres undefined)	89.18
CN(C)C(=O)CS(=O)(=O)Cc1cc(Cl)c2c(c1)OCCCO2	-2.577
COc1cc2c(cc1CN1CCCCC1CN1CCOCC1)CCC2 (centres undefined)	26.24
CCCn1ncc(CN2CCCCC2CCCOC)c1C (centres undefined)	-0.2831
COc1ccccc1OC1CCN(C(=O)c2c[nH]c(=O)[nH]c2=O)CC1	-1.274
CC(C)c1noc(C(C)N2CCN(Cc3nc4ccccc4[nH]3)CC2)n1 (centres undefined)	-18.96
COc1c(C)cnc(CN2CCCCC2CCN2CCOCC2)c1C (centres undefined)	0.5923
CS(=O)(=O)Cc1cc(Cl)c2c(c1)OCCCO2	18.55
CS(=O)(=O)N[C@H]1CN(C(=O)CCc2ccc(=O)[nH]n2)C[C@@H]1C1CC1	-10.51
CN(C)C(=O)CCCS(=O)(=O)Cc1cc(Cl)c2c(c1)OCCO2	4.566
Cc1ccccc1CS(=O)(=O)CC(=O)N(C)Cc1ccccc1	-7.305
CC(C)NC(=O)CS(=O)(=O)Cc1cc(Cl)c2c(c1)OCCO2	2.891
Cc1c[nH]c(CN2CCCCC2CCn2cccn2)c(C)c1=O (centres undefined)	21.06
Cc1cnn(CC2CCCN2Cc2cc(=O)n3cc(C)ccc3n2)c1 (centres undefined)	11.19
COc1c(C2CCCN2C(=O)c2sc(C)nc2C)c(C)nn1C (centres undefined)	94.35
CN(C)C(=O)CCCS(=O)(=O)Cc1cc(Cl)c2c(c1)OCO2	133.3
Cc1ccc2nc(CN3CCCCC3CCN3CCOCC3)cn2c1 (centres undefined)	98.48
COc1ccsc1C(=O)N1CCCC1c1c(C)nn(C)c1OC (centres undefined)	-20.58

====

Measured Percent Effect by item
- System: Wolbachia pipientis
- method: Anti-Wolbachia Cell-Based Screen
- Assay type: functional
- Set-up: scale not given: in the data most compounds retested in dose-response had high values
- assayContext: 5 µM
Out of some 48,000 compounds screened, about 13,000 (27%) showed an effect of 50% or more. This is one part of the list.

molecule	Percent Effect (%)
CCn1ncc2c1C(COC)CN(Cc1ccc(C)o1)C2 (configuration not stated)	99.39
COc1ccc(NC(=O)N2CCC(c3noc(C)n3)CC2)cc1C	-0.09079
CCn1cc2c(n1)C(COC)CN(Cc1ccoc1)C2 (configuration not stated)	-1.069
O=C(Cc1ccccn1)N1CCN(C(=O)c2cccc3[nH]ncc23)CC1	0.8571
O=C(Nc1ccc(F)cc1-c1nc(C2CC2)no1)N1CC[C@@H](O)C1	96.09
O=C(Nc1cc(-c2ccccc2)on1)N1CC[C@H](O)C1	-19.05
CCCn1nc(-c2nc(C3CC3)no2)ccc1=O	-1.199
CCn1nnc2c1C(COC)CN(Cc1ccco1)C2 (configuration not stated)	114.9
CCn1nnc2c1C(COC)CN(C(=O)Cc1cccs1)C2 (configuration not stated)	-3.417
CCn1ncc2c1C(COC)CN(Cc1ccco1)C2 (configuration not stated)	102.5
O=C(Cc1ccccn1)N1CCN(C(=O)CC2CCCC2)CC1	111.6
O=C(Nc1c(F)cccc1F)N1CC(c2nc(C3CC3)no2)C1	16.35
